# Organism: Rattus norvegicus
# Test Protocol: Open TG-GATES - Regimen: Daily Repeat
# Format: toxicity, organism-based, Sprague-Dawley
# Set-up: regimen Daily Repeat, gender Male, age 6 weeks
# Cond: in vivo, po, 300 mg/kg, […], tissue Blood, route gavage, dose level Middle, time 14 day
Recorded Metric: Ret (%)
Quick note: give the figure in %, leave out the unit.

[
  {
    "Compound": "O=C(N[C@H](CO)[C@H](O)c1ccc([N+](=O)[O-])cc1)C(Cl)Cl",
    "Ret (%)": 4.7
  },
  {
    "Compound": "O=C(O)c1cccnc1",
    "Ret (%)": 4.7
  },
  {
    "Compound": "CCN1CCCC1CNC(=O)c1cc(S(N)(=O)=O)ccc1OC (centres undefined) [SULPIRIDE]",
    "Ret (%)": 4.1
  }
]

# ---- query compound ----
Qu. Name the recorded Ret for `CC(C)(S)[C@@H](N)C(=O)O` .
Ans. 5.2

----------
# Organism: Rattus norvegicus
# Test Protocol: Open TG-GATES - Regimen: Daily Repeat
# Format: toxicity, organism-based, Sprague-Dawley
# Design: regimen Daily Repeat, gender Male, age 6 weeks
# Cond: in vivo, po, 0 mg/kg, […], tissue Blood, route gavage, dose level Control, time 28 day
Recorded Metric: MCH (pg)
Lab book: enter the figure in pg, no units written.

Reference set, count: 3
[
  {
    "Molecule": "CC(=N)S [THIOACETAMIDE]",
    "Unit Name": "pg",
    "Reported": 19.7
  },
  {
    "Molecule": "Nc1nc(N)c2nc(-c3ccccc3)c(N)nc2n1",
    "Unit Name": "pg",
    "Reported": 18.8
  },
  {
    "Molecule": "CC(=O)Oc1cc(C(C)C)c(OCCN(C)C)cc1C",
    "Unit Name": "pg",
    "Reported": 19.4
  }
]

Qu. Name the recorded MCH for `C#C[C@]1(O)CC[C@H]2[C@@H]3CCc4cc(O)ccc4[C@H]3CC[C@@]21C` .
Ans. 20.3

Qu. Also need CCN1CCCC1CNC(=O)c1cc(S(N)(=O)=O)ccc1OC (stereo unspecified) [SULPIRIDE] , thanks.
Ans. 19.1

Qu. Continue with `O=C(N[C@H](CO)[C@H](O)c1ccc([N+](=O)[O-])cc1)C(Cl)Cl`
Ans. 20

Qu. And what about the molecule `CC(C)(S)[C@@H](N)C(=O)O` ?
Ans. 19.8

Qu. Same thing, different molecule: `CN1C(=O)OC(C)(C)C1=O`
Ans. 19.8

Qu. Query `C[C@]12CCC(=O)C=C1CC[C@@H]1[C@@H]2CC[C@@]2(C)[C@H]1CC[C@]2(C)O` next
Ans. 19.7

Qu. Do the same for `Oc1ncnc2[nH]ncc12` please
Ans. 19.3

Qu. Quick one: `CCSCC[C@H](N)C(=O)O`
Ans. 19.6

----------
# Species: Rattus norvegicus
# Test Protocol: Open TG-GATES - Regimen: Single
# Assay type: toxicity, organism-based, Sprague-Dawley
# Set-up: regimen Single, gender Male, age 6 weeks
# Cond: in vivo, po, 0 mg/kg, 3 h, tissue Blood, route gavage, dose level Control
Recorded WBC for the following molecules
Write the number in x10_2/uL without appending the unit.

Solved entries:
[
  {
    "Molecule": "CC(=O)Oc1cc(C(C)C)c(OCCN(C)C)cc1C [MOXISYLYTE]",
    "Reported": 111.5
  },
  {
    "Molecule": "CCSCC[C@H](N)C(=O)O [ETHIONINE]",
    "Reported": 83.3
  },
  {
    "Molecule": "O=C(O)c1cccnc1 [NIACIN]",
    "Reported": 80.3
  },
  {
    "Molecule": "CN1C(=O)OC(C)(C)C1=O [TRIMETHADIONE]",
    "Reported": 86.1
  },
  {
    "Molecule": "CC(C)(S)[C@@H](N)C(=O)O [PENICILLAMINE]",
    "Reported": 90
  }
]

Qu. I am curious: what WBC value has been reported for C[C@]12CCC(=O)C=C1CC[C@@H]1[C@@H]2CC[C@@]2(C)[C@H]1CC[C@]2(C)O [METHYLTESTOSTERONE] ?
Ans. 71.2
